Target: Phosphatidylinositol 4,5-bisphosphate 3-kinase catalytic subunit alpha isoform (Homo sapiens)
Sequence (P42336 whole entry, canonical isoform): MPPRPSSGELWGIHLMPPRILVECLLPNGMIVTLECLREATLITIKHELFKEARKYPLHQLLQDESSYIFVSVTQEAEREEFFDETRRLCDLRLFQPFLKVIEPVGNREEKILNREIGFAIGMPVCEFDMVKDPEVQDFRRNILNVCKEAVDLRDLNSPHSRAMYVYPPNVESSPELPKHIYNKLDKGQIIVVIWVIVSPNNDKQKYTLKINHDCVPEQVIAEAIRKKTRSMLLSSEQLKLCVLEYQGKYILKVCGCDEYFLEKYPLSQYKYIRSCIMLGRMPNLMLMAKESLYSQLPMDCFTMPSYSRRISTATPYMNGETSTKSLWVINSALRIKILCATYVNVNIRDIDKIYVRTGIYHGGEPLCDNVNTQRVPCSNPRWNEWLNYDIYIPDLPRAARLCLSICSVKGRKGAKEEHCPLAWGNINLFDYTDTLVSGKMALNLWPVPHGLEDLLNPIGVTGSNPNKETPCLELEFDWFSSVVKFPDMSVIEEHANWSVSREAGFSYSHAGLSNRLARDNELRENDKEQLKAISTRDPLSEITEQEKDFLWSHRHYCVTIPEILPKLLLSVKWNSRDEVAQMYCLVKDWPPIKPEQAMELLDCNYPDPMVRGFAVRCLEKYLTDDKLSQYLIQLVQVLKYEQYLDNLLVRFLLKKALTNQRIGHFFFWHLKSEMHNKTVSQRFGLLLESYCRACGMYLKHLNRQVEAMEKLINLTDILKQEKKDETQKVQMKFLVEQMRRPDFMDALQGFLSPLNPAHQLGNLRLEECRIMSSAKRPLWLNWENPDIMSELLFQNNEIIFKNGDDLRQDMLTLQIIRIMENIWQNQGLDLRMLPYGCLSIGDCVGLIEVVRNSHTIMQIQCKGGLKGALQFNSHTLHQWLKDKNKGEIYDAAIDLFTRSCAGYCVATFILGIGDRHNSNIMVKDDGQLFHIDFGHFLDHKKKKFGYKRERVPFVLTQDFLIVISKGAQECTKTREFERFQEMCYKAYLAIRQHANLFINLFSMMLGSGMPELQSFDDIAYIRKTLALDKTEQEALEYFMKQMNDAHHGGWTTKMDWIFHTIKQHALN
Assay: Inhibition of PI3Kalpha (unknown origin) using […] as substrate preincubated for 10 mins followed by substrate addition by microplate reader analysis
PARAMETER_MEASURED: IC50 (nM)
Report as a plain number; the unit nM is understood.

Data request, read-out IC50, for CC1(CCn2nc(-c3ccc(Cl)c(O)c3)c3c(N)ncnc32)COC1 172

* * *

Assay: Inhibition of P13Kalpha (unknown origin) in the presence of ATP by scintillation proximity assay
PARAMETER_MEASURED: pIC50
Value format note: pIC50 is -log10 of concentration (mol/L); just state the number.

Recorded pIC50 of Cc1cc(S(=O)(=O)N[C@H]2CC[C@H](O)CC2)ccc1-c1cnc(N)c(C(=O)C2CC2)n1 , please. 6.96

Form field: reported pIC50 of Cc1ncc(-c2cc(-c3ccc(S(=O)(=O)NCC(C)(C)O)cc3C)cnc2N)o1 6.52

* * *

Assay: Clearance in Beagle Dog at 1 micromol/kg, iv
Format: ADME, Canis lupus familiaris
Conditions: in vivo, dose 1 µmol/kg
PARAMETER_MEASURED: clearance (mL/min/kg)
Please respond with the number in mL/min/kg and leave the unit unwritten.

Recorded clearance of CC(=O)Nc1nc(C)c(-c2cc3c(c(S(C)(=O)=O)c2)C(=O)N([C@@H](C)C2CC2)C3)s1 , please. 3.3

* * *

Molecular target: Phosphatidylinositol 4,5-bisphosphate 3-kinase catalytic subunit gamma isoform (Homo sapiens, UniProt P48736)
Sequence (P48736 whole entry, canonical isoform): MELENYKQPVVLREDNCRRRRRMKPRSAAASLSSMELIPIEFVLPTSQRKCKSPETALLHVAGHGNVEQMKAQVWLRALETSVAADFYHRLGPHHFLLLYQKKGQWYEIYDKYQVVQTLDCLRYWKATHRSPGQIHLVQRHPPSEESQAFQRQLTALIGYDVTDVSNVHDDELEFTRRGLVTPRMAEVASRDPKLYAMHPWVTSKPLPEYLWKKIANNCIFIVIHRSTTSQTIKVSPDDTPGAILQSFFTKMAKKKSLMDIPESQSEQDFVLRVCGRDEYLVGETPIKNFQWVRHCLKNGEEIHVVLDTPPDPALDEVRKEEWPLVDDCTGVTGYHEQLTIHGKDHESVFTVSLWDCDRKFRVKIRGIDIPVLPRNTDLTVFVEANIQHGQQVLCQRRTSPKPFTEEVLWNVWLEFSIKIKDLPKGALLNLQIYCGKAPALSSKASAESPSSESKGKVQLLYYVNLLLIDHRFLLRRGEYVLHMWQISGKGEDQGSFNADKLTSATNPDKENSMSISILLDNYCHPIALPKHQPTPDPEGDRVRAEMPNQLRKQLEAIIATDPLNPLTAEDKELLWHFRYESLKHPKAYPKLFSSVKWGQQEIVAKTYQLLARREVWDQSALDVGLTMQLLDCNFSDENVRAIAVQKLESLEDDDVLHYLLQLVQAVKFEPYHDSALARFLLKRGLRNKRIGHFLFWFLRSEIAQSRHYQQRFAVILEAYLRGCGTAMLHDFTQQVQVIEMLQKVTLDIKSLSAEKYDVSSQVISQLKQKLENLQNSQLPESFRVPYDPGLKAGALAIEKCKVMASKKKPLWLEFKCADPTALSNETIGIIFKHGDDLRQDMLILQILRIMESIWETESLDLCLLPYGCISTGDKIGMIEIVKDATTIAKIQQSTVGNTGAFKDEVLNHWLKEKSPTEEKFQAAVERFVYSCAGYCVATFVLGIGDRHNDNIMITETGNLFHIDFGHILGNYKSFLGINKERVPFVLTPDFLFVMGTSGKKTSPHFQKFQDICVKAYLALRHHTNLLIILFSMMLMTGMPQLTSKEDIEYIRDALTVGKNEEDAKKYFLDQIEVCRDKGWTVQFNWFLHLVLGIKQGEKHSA
Assay: Inhibition of PI3Kgamma (unknown origin)
pIC50: −log10 of the molar value.
PARAMETER_MEASURED: pIC50

State the recorded pIC50 for this entry: CC(NC(=O)c1c(N)nn2cccnc12)c1cc(Cl)c2c(C#N)ncn2c1N1CCS(=O)(=O)C(C)C1 (stereo unspecified) > 7.00

* * *

Target: Phosphatidylinositol 4,5-bisphosphate 3-kinase catalytic subunit beta isoform (Homo sapiens, UniProt P42338)
Sequence (P42338 whole entry, canonical isoform): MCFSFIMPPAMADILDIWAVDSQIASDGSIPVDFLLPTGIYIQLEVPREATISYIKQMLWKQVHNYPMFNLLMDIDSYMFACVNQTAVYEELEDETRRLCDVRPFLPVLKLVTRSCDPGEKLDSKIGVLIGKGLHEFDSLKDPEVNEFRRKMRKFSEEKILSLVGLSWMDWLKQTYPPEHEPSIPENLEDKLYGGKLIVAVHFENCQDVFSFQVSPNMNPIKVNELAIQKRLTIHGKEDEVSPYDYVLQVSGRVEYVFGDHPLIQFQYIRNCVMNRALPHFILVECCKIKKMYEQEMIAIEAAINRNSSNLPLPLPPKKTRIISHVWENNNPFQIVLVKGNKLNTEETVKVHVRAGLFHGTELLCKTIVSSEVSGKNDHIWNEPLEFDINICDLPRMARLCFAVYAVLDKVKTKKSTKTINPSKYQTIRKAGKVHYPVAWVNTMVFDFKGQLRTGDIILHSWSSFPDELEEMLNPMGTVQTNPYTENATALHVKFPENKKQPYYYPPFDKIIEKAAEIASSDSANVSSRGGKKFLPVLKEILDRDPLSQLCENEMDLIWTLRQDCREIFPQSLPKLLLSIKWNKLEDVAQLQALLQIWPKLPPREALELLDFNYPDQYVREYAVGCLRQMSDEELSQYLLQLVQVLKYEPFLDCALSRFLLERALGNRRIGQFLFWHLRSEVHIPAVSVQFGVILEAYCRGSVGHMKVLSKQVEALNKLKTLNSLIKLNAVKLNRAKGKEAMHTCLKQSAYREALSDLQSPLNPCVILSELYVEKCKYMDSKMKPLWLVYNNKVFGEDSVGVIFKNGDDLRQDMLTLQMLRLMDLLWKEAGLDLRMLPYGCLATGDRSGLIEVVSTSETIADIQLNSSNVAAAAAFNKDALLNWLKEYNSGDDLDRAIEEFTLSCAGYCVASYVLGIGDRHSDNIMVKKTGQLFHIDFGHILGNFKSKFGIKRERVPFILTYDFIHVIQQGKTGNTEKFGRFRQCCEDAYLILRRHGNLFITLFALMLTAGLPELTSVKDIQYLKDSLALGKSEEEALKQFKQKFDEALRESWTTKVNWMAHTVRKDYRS
Assay: Inhibition of PI3Kbeta (unknown origin)
PARAMETER_MEASURED: IC50

Could you tell me which IC50 is on file for CC(=O)c1c(C)n(-c2ccc(C)cc2)c2ccc(OCC(O)CNCc3ccc(Cl)cc3)cc12 (stereo unspecified) ? > 20 µM

* * *

For each entry below, report its bioavailability value.
Test: Oral bioavailability in rat at 10 mg/kg
Assay type: ADME, organism-based
Conditions: in vivo
Enter your answer as a number in %; do not include the unit.

Which value of bioavailability has been reported for Cc1cc(S(=O)(=O)N[C@H]2CC[C@H](O)CC2)ccc1-c1cnc(N)c(C(=O)C2CC2)n1 in the records? 23

I have this compound here, Cc1ncc(-c2cc(-c3ccc(S(=O)(=O)NCC(C)(C)O)cc3C)cnc2N)o1 , and I need its recorded bioavailability. 72

* * *

Assay: Inhibition of P13Kalpha (unknown origin)
pIC50: −log10 of the molar value.
PARAMETER_MEASURED: pIC50

Any idea what pIC50 was measured for CC(=O)c1c(C)n(-c2ccc(C)cc2)c2ccc(OCC(O)CNCc3ccc(Cl)cc3)cc12 (stereo unspecified) ? < 4.70

* * *

Target: Phosphatidylinositol 4,5-bisphosphate 3-kinase catalytic subunit delta isoform (Homo sapiens, UniProt O00329)
Sequence (O00329 whole entry, canonical isoform): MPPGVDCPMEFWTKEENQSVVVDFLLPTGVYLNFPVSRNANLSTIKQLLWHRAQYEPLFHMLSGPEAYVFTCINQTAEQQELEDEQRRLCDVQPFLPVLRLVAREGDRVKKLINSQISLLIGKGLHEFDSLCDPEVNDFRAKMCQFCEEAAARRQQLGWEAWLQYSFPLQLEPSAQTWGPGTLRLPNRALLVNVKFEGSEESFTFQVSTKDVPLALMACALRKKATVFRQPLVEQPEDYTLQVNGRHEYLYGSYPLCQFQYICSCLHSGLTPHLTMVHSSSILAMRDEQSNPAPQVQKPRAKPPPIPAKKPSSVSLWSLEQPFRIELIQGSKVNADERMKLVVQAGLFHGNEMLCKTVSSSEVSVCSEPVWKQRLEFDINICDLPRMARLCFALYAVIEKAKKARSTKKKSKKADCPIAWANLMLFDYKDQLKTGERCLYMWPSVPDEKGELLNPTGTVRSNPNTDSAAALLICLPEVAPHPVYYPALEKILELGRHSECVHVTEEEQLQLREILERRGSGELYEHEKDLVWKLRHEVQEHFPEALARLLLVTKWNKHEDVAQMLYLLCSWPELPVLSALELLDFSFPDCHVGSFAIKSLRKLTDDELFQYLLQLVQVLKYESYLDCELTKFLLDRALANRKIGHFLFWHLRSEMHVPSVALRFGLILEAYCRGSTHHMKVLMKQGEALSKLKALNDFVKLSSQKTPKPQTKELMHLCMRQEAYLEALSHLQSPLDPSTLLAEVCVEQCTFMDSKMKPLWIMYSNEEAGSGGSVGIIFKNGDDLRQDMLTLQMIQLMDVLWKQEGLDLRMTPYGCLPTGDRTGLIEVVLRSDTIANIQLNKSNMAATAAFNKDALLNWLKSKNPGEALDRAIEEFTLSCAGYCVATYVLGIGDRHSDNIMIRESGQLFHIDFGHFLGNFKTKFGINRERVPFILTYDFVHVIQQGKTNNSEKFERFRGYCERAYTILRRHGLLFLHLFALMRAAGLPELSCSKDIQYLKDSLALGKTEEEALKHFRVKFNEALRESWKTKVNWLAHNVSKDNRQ
Experiment: Inhibition of PI3Kdelta (unknown origin)
PARAMETER_MEASURED: IC50

Requested field: IC50. Item: CC(NC(=O)c1c(N)nn2cccnc12)c1cc(Cl)c2c(C#N)ncn2c1N1CCS(=O)(=O)C(C)C1 (stereo unspecified) < 2000 nM
